- protocol_notes: NOVARTIS: Cytotoxicity against human hepatocellular carcinoma cell line (Huh7)
- Type: toxicity, cell-based, Huh-7
- particulars: Huh7 cells (hepatocellular carcinoma cell line)
recorded_endpoint: CC50

CC(=O)Nc1ccc(N2C(=O)CSC2c2ccc(Br)cc2)cc1 (configuration not stated)    > 100 µM

Entry under review: COc1cc(NC(C)CCCN(Cc2ccccc2OC)C(=O)C(Cl)Cl)c2ncccc2c1 (configuration not stated) . Reported CC50?
> 10 µM

Entry under review: CCCOc1ccc(NC(=O)c2ccco2)cc1 . Reported CC50?
16.9 µM

Entry under review: COc1cccc(-c2ccc(O)c(CNCCc3cccc(F)c3)c2)n1 . Reported CC50?
> 10 µM

Entry under review: COc1ccc2cc(C(C)=NO)ccc2c1 . Reported CC50?
> 100 µM

Entry under review: COc1ccc(-n2nc([N+](=O)[O-])c(Nc3ccc([N+](=O)[O-])cc3C)[n+]2[O-])cc1 . Reported CC50?
> 100 µM

Entry under review: COc1cccc2c1[C@@H](OC)[C@@]13O[C@]1(C2=O)[C@H](O)[C@@H](C)[C@](O)(C(=O)[C@@H]1O[C@H]1C)[C@H]3O . Reported CC50?
2.82 µM

Entry under review: O=C(Nc1ccc2c(c1)CN(C1CCSCC1)CC2)C1(c2ccccc2)CC1 . Reported CC50?
> 100 µM

Entry under review: Cc1ccc(C#N)c(SCc2nnc(-c3ccc(Cl)cc3)o2)n1 . Reported CC50?
> 10 µM

Entry under review: CC(C)c1ccc(C=CC(=O)NCc2ccco2)cc1 . Reported CC50?
> 100 µM

Entry under review: CCCCNCC(O)(c1ccc(Cl)cc1)c1ccc(Cl)cc1 . Reported CC50?
38.5 µM

Entry under review: CCCC(=O)O[C@]1(C(=O)CCl)[C@@H](C)C[C@H]2[C@@H]3CCC4=CC(=O)C=C[C@]4(C)[C@@]3(F)C(=O)C[C@@]21C . Reported CC50?
80 µM

Entry under review: CCC(C)(C)c1ccc(OCC(O)CNCc2ccccc2)c(C(C)(C)CC)c1 (configuration not stated) . Reported CC50?
9.2 µM

----------
Parameter: EC50. Scope: all listed entries.
- Tested on: Plasmodium falciparum
- protocol_notes: NOVARTIS: Inhibition of Plasmodium falciparum 3D7 (drug-susceptible) proliferation in erythrocyte-based infection assay
- Assay type: functional, organism-based
- particulars: Plasmodium falciparum, 3D7
Use nM as the unit, but write only the number.

Reference set, count: 4
C=C(C)[C@@]12O[C@@H]1[C@@]1(C)C(=CC2=O)CC[C@@H](O)[C@@H]1C    787
OCCc1cn(-c2ccccc2)c2ccccc12    717
CCCCN(CC(=O)N1c2ccccc2-n2cccc2C1c1ccc(OC)cc1)C(=O)Nc1cccc(F)c1 (stereo unspecified)    8600
c1ccc2c(c1)[nH]c1c(NCCN3CCCCC3)ncnc12    704

Pending compound:
Which EC50 is reported with Plasmodium falciparum for this entry: Cc1ccccc1Cn1c(C)c[n+]2ccsc12 ?
1280

----------
Parameter: pEC50. Scope: all listed entries.
- System: Plasmodium falciparum
- protocol_notes: NOVARTIS: Inhibition of Plasmodium falciparum W2 (drug-resistant) proliferation in erythrocyte-based infection assay
- Type: functional, organism-based
- particulars: Plasmodium falciparum, W2; read-out: EC50
pEC50 (log units): -log10 of the concentration in mol/L.

Reference set, count: 5
c1ccc(N=c2sc(-c3ccccc3)cn2CCCCCCn2cc(-c3ccccc3)sc2=Nc2ccccc2)cc1    6.28
COc1ccc(C2CC(=O)C3=C(C2)NC(C)=C(C(=O)OC2CCCC2)C3c2ccc([N+](=O)[O-])cc2)cc1OC (centres undefined)    7.83
COc1ccc(Cl)cc1NC(=O)CSC1=C(C#N)C(c2ccccc2)C(C(=O)Nc2ccccc2)=C(C)N1 (centres undefined)    5.72
O=C(CCn1c(=S)oc2ccccc21)N1CCN(c2ccccc2)CC1    7.57
COc1ccc(CCN2C(=O)N(CCN(C)C)C(=O)C23CCN(Cc2ccc(O)cc2)CC3)cc1    6.08

Entry under review: C=C[C@H]1CN2CC[C@H]1C[C@@H]2[C@@H](OC(C)=O)c1ccnc2ccccc12 . Reported pEC50?
6.80

Entry under review: NN1C(=O)NC(=O)C1Nc1cccc([N+](=O)[O-])c1 (centres undefined) . Reported pEC50?
6.86

Entry under review: FC(F)(F)c1ccccc1CN1CCc2nc(N3CCCCC3)sc2C1 . Reported pEC50?
6.64

Entry under review: CCOc1ccc2nc(C)cc(Nc3ccc(Br)cc3)c2c1 . Reported pEC50?
6.74

Entry under review: COc1ccc2c(C)nc(Nc3nc(C)cc(-c4ccccc4)n3)nc2c1 . Reported pEC50?
5.93

Entry under review: CSc1oc(C(C)(C)C)nc1[P+](c1ccccc1)(c1ccccc1)c1ccccc1 . Reported pEC50?
6.36

Entry under review: CC[n+]1c(C=Cc2ccc(Cl)cc2)ccc2ccccc21 . Reported pEC50?
5.90

Entry under review: CN(C)c1ccc(/C=C/c2nc(=O)c3ccccc3o2)cc1 . Reported pEC50?
7.03

Entry under review: Cc1nc(-c2ccccc2)nc(C(=O)N2CCN(C(=O)NC3CCCCC3)C(C)C2)c1C(=O)OC(C)C (centres undefined) . Reported pEC50?
7.38

Entry under review: c1ccc2c(NCCc3c[nH]c4ccccc34)c3ccccc3nc2c1 . Reported pEC50?
7.50

Entry under review: Clc1ccc(OCc2nc3ccccc3n2CCc2ccccc2)cc1 . Reported pEC50?
6.78

----------
Parameter: CC50. Scope: all listed entries.
- protocol_notes: NOVARTIS: Cytotoxicity against human hepatocellular carcinoma cell line (Huh7)
- Assay type: toxicity, cell-based, Huh-7
- particulars: Huh7 cells (hepatocellular carcinoma cell line)

Reference set, count: 4
CCC(c1nc2ccccc2c(=O)n1-c1ccccc1OC)N(CCc1ccccc1)C(=O)CCc1ccccc1 (stereo not given)    4.17 µM
COc1ccccc1NC1=CC(=NS(=O)(=O)c2ccc(F)cc2)c2ccccc2C1=O    20.6 µM
Cc1ccc2c(c1)NC(c1ccc(F)cc1)C1=C(CC(c3ccccc3)CC1=O)N2 (stereo not given)    > 100 µM
COc1ccc(Nc2nc(NN=Cc3cccc(Cl)c3)nc(Nc3ccc([N+](=O)[O-])cc3)n2)cc1    > 100 µM

Pending compound:
Entry under review: CCCn1c(SCCNC(=O)NCC)nc(-c2ccccc2)c1-c1ccccc1 . Reported CC50?
> 10 µM

----------
Parameter: CC50. Scope: all listed entries.
- protocol_notes: NOVARTIS: Cytotoxicity against human hepatocellular carcinoma cell line (Huh7)
- Assay type: toxicity, cell-based, Huh-7
- particulars: Huh7 cells (hepatocellular carcinoma cell line)

Reference set, count: 10
CCCCCOc1ccc(/C=C2/N=C(c3ccccc3)OC2=O)cc1    > 10 µM
COc1cccc(CNc2cc(C(=O)NCCNC(C)=O)cc(S(=O)(=O)N(C)C)c2)c1OC    > 10 µM
CCCN(CCC)C1=CC(=O)C(C(C)(C)C)=CC1=O    50.9 µM
CCCCCCCCCCOC(=O)Cn1c(C)[n+](C)c2ccccc21    58.1 µM
COc1ccc2cc(CNCCCO)c(N3CCN(c4ccc(F)cc4)CC3)nc2c1    20.1 µM
Cc1cccc(NC2=NC(N)=NC(C)(C)N2)c1    > 10 µM
NS(=O)(=O)c1ccc(CCNC(=O)/C=C/c2ccc3c(c2)OCO3)cc1    > 10 µM
O=C(CCl)NCCCCNc1ccnc2cc(Cl)ccc12    > 10 µM
N#Cc1c(N)nc(SCC(=O)c2ccc([N+](=O)[O-])cc2)c(C#N)c1-c1ccccc1    > 100 µM
CCOC(=O)c1cnc2ccc(OCC)cc2c1NCCN(CC)CC    > 10 µM

Entry under review: O=C1CCC2C3C=CC(C3)C12 (stereo unspecified) . Reported CC50?
> 12.4 µM

Entry under review: Cn1nc(C(=O)N2CCCCCC2)c2c1CCC(NCC(C)(C)N1CCOCC1)C2 (stereo unspecified) . Reported CC50?
> 9.56 µM

Entry under review: O=C(Cn1cc([N+](=O)[O-])nc1[N+](=O)[O-])N1CCN(c2ccc(F)cc2)CC1 . Reported CC50?
33.6 µM

----------
- Tested on: Plasmodium falciparum
- protocol_notes: NOVARTIS: Inhibition of Plasmodium falciparum W2 (drug-resistant) proliferation in erythrocyte-based infection assay
- Format: functional, organism-based
- particulars: Plasmodium falciparum, W2; read-out: EC50
Parameter: pEC50. Scope: all listed entries.
pEC50 (log units): -log10 of the concentration in mol/L.

Reference set, count: 8
COc1cccc(NC(=O)Cn2c(C)c(C(C)=O)c3ccccc32)c1    6.15
c1ccc(OCCOc2ccc(Nc3ccnc4cc5ccccc5cc34)cc2)cc1    7.01
Fc1ccc(-c2cn3c([n+]2-c2ccccc2)SCC3)cc1    6.15
CCN1C(C)=C(C)S/C1=C\c1ccc2cc(C)ccc2[n+]1C    6.77
COc1cc(C(C(=O)NCc2ccccc2)N(C(=O)c2snc(C(N)=O)c2N)c2ccc(C(C)C)cc2)cc(OC)c1OC (stereo unspecified)    5.89
COC(=O)C1=C(C)NC2=C(C(=O)CC(c3ccc(OC)c(OC)c3)C2)C1c1ccccc1C (stereo unspecified)    7.50
COc1ccccc1CNC(=O)CN1C(=O)c2cccnc2Oc2ccccc21    5.87
c1ccc2nc3c(nnc4ccccc43)nc2c1    6.00

Entry under review: CCCCN(C)Cc1cc(-c2cccc(OC)n2)ccc1O . Reported pEC50?
7.04
